- Tested on: prostate, seminal vesicles and levator ani muscle
- measurement.protocol: Androgenic and anabolic activity in intact male rats, daily oral gavage
- Format: in vivo, rat
- run.conditions: 0.03 mg/day
Recorded measurements of levator ani muscle weight, one per entry

// below: answered molecules
C[C@](O)(COc1ccc(Cl)c(F)c1)C(=O)Nc1ccc(C#N)c(C(F)(F)F)c1 | 98%±7%
C[C@](O)(COc1ccc(C#N)cc1)C(=O)Nc1ccc(C#N)c(C(F)(F)F)c1 | 116%±7%
C[C@](O)(COc1ccc(C#N)c(F)c1)C(=O)Nc1ccc(C#N)c(C(F)(F)F)c1 | 134%±8%

Query (molecule): C[C@](O)(COc1ccc(C#N)cc1)C(=O)Nc1ccc(C#N)c(Cl)c1 ; field requested: levator ani muscle weight
103%±7%

* * *

- tested.target: AR (Homo sapiens, UniProt P10275)
- Sequence (P10275 whole entry): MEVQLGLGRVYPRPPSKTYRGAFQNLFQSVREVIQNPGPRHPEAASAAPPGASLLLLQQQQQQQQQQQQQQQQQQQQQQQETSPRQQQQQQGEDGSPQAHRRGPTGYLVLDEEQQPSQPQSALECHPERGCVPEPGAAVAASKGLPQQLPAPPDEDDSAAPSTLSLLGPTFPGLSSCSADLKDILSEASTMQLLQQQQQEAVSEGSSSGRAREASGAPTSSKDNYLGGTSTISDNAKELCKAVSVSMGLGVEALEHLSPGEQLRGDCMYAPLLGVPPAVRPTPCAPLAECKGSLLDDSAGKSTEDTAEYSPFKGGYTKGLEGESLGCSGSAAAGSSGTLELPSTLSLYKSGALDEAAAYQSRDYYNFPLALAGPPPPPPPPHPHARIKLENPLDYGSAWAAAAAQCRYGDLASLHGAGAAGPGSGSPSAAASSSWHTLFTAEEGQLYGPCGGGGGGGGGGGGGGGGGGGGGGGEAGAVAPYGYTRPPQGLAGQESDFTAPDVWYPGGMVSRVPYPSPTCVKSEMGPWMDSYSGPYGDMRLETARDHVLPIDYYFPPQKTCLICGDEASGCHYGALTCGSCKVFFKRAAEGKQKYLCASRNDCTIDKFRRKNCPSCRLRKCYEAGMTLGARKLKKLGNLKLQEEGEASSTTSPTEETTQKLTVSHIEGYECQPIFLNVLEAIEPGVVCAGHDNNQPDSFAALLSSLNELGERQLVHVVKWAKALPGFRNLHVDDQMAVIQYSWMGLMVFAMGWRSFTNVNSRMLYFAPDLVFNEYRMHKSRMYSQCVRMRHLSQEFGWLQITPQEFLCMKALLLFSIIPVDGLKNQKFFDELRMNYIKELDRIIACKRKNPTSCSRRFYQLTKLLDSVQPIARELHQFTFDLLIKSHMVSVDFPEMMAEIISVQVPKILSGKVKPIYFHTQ
- measurement.protocol: biochemical
- Assay type: binding
- run.conditions: read-out: binding affinity
readout.name: Ki (nM)
Use nM as the unit, but write only the number.

Query (molecule): C[C@](O)(COc1ccc(Cl)cc1)C(=O)Nc1ccc(C#N)c(C(F)(F)F)c1 ; field requested: Ki
3.4

Query (molecule): C[C@](O)(COc1ccc(F)cc1)C(=O)Nc1ccc(C#N)c(C(F)(F)F)c1 ; field requested: Ki
3.3

* * *

Recorded measurements of concentration at 24 h after the last dose, one per entry
- measurement.protocol: Serum drug concentration by LC-MS/MS in ovariectomized mice
- Assay type: in vivo
- run.conditions: female, mouse, oral, 5 mpk p.o., 28 days
Use µM as the unit, but write only the number.

C[C@](O)(COc1ccc(C#N)cc1)C(=O)Nc1ccc(C#N)c(Cl)c1 | 4.1

Query (molecule): C[C@](O)(COc1ccc(C#N)cc1)C(=O)Nc1ccc(C#N)c(C(F)(F)F)c1 ; field requested: concentration at 24 h after the last dose
6.07

Where do the numbers come from? From patent US20180353460A1.
